// pKd lookup, one value per entry
- target_or_test_system: JAK2 JH2 WT (V536-D812) [W659A, W777A, F794H solubilizing mutations] (Homo sapiens, UniProt O60674, F794H/W659A/W777A)
- Construct: **JAK2 JH2 WT (V536-D812) [W659A, W777A, F794H solubilizing mutations]; C-thrombin-avi-His6; thrombin cleavage site (C); His6 (C); purchased Biortus
- Sequence (O60674 536-812 W659A/W777A/F794H): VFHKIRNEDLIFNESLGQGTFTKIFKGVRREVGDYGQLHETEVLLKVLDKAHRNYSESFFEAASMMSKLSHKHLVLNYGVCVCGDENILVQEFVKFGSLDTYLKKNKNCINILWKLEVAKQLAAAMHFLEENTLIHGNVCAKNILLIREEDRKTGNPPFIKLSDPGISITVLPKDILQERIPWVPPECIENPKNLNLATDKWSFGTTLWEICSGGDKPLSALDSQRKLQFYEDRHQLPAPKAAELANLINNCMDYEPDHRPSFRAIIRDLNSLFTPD
- protocol_description: Surface Plasmon Resonance (SPR) binding assay, JAK2 JH2 domain
pKd: −log10 of the molar value.

Using the record for `CNC(=O)c1nnc(NC(=O)C2CC2)cc1Nc1cccc(-c2cnn(C3CN(C(=O)c4ccccn4)C3)c2)c1OC` , report its pKd.
8.00 to 11.00

Using the record for `CNC(=O)c1nnc(NC(=O)C2CC2)cc1Nc1cccc(-c2cc(C3CN(Cc4cccc(C#N)n4)C3)n(C)n2)c1OC` , report its pKd.
6.30 to 7.30
